Entry source: ChEMBL document CHEMBL5291721

- targetOrSystem: UniProt P08913
- Sequence (P08913 whole entry): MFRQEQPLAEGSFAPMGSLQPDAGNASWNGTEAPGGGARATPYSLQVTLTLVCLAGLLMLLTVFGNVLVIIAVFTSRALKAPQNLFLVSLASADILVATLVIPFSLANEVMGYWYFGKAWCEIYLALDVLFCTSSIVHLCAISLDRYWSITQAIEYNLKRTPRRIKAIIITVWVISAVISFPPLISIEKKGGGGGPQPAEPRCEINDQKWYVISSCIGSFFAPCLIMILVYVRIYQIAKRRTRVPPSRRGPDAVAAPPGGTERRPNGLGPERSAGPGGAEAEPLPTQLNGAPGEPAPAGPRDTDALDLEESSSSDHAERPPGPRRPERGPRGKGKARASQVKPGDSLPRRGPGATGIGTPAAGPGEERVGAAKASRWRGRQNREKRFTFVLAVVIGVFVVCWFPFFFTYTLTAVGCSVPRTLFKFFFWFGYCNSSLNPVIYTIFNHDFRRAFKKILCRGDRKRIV
- Type: functional, cell-based
measurementLabel: AC50

Reference set, count: 4
Entry Clc1ccc(CCC(Cn2ccnc2)Sc2c(Cl)cccc2Cl)cc1 (stereo not drawn) [BUTOCONAZOLE] : reported AC50 = ? > 30 µM

Quick one: CO[C@H]1C[C@H](O[C@H]2CC[C@@]3(C)[C@H](CC[C@@H]4[C@@H]3CC[C@]3(C)[C@@H](C5=CC(=O)OC5)[C@@H](OC(C)=O)C[C@]43O)C2)O[C@@H](C)[C@@H]1O [OLEANDRIN] > 30 µM

Quick one: CC(C)N(CCCCOCC(=O)O)c1cnc(-c2ccccc2)c(-c2ccccc2)n1 > 30 µM

Quick one: O=C(O)Cc1ccccc1Oc1ccc(Cl)cc1Cl [FENCLOFENAC] > 10 µM

Next:
Entry CCc1nc(N)nc(N)c1-c1ccc(Cl)cc1 [PYRIMETHAMINE] : reported AC50 = ? > 30 µM

Quick one: CCC(=O)O[C@]1(C(=O)CCl)[C@@H](C)C[C@H]2[C@@H]3CCC4=CC(=O)C=C[C@]4(C)[C@@]3(F)[C@@H](O)C[C@@]21C [CLOBETASOL PROPIONATE] > 30 µM

Quick one: CCC(NC(C)C)C(O)c1ccc(O)c2[nH]c(=O)ccc12 (stereo not drawn) [PROCATEROL] > 30 µM

Quick one: CCC1(CCC(C)C)C(=O)NC(=O)NC1=O [AMOBARBITAL] > 10 µM

====

Listed here: items and their measured AC50.
- targetOrSystem: Alpha-1A adrenergic receptor (Homo sapiens, UniProt P35348); further: assay procedure not described here
- Sequence (P35348 whole entry): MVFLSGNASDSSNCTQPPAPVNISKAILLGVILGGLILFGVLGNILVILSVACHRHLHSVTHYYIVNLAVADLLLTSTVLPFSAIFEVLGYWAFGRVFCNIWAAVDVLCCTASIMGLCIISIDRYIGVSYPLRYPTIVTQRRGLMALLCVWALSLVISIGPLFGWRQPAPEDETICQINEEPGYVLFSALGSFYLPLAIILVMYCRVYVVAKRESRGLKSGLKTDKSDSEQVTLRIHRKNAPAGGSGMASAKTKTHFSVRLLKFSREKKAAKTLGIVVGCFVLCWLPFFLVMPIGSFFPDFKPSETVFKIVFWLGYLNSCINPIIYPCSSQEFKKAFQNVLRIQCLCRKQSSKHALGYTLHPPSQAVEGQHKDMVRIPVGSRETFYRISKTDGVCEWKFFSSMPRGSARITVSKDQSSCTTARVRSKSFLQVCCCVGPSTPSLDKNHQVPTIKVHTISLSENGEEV
- Type: functional, cell-based

Reference set, count: 3
Entry CC/C=C\C/C=C\C/C=C\C/C=C\C/C=C\CCCC(=O)OCC : reported AC50 = ? > 30 µM

Quick one: COc1cc(C(C)=O)ccc1OCCCN1CCC(c2noc3cc(F)ccc23)CC1 0.0092 µM

Quick one: C[C@@H]1C[C@H]2[C@@H]3C[C@H](F)C4=CC(=O)C=C[C@]4(C)[C@@]3(F)[C@@H](O)C[C@]2(C)[C@@]1(OC(=O)c1ccco1)C(=O)SCF [FLUTICASONE FUROATE] > 30 µM

Alright, here's another molecule for you.
Entry Cc1ccc(C)c(OCCCC(C)(C)C(=O)O)c1 : reported AC50 = ? > 30 µM

====

- targetOrSystem: 5-hydroxytryptamine receptor 3A (Homo sapiens, UniProt P46098); further: assay procedure not described here
- Sequence (P46098 whole entry): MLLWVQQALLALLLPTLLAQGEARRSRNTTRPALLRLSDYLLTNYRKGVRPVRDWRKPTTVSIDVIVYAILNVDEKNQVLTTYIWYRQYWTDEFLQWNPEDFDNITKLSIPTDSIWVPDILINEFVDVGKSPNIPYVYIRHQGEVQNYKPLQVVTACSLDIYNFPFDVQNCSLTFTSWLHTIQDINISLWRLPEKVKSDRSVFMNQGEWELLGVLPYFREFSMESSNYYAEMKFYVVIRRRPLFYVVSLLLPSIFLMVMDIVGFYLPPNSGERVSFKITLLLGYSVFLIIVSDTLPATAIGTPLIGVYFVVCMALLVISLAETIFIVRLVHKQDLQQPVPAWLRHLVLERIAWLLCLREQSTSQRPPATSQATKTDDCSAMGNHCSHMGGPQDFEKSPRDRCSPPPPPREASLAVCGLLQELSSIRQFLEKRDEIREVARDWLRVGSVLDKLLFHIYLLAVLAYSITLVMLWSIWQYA
- Assay type: functional
measurementLabel: AC50

Entry CN1Cc2c(N)cccc2C(c2ccccc2)C1 (configuration not stated) [NOMIFENSINE] : reported AC50 = ? > 30 µM

Quick one: CCCCCCCN(CC)CCCC(O)c1ccc(NS(C)(=O)=O)cc1 (configuration not stated) [IBUTILIDE] > 30 µM

Quick one: O=C1Cc2cc(CCN3CCN(c4nsc5ccccc45)CC3)c(Cl)cc2N1 [ZIPRASIDONE] > 10 µM

Quick one: COc1cc(C(C)=O)ccc1OCCCN1CCC(c2noc3cc(F)ccc23)CC1 [ILOPERIDONE] > 30 µM

Quick one: CC(C)(O/N=C(\C(=O)N[C@@H]1C(=O)N2C(C(=O)[O-])=C(C[n+]3ccccc3)CS[C@H]12)c1csc(N)n1)C(=O)O [CEFTAZIDIME] > 300 µM

Next:
Entry Clc1ccc(CCC(Cn2ccnc2)Sc2c(Cl)cccc2Cl)cc1 (configuration not stated) [BUTOCONAZOLE] : reported AC50 = ? > 30 µM

Quick one: O=C(c1cc(Cc2n[nH]c(=O)c3ccccc23)ccc1F)N1CCN(C(=O)C2CC2)CC1 [OLAPARIB] > 30 µM

Quick one: CC1=C(C(=O)OC(C)C)C(c2cccc([N+](=O)[O-])c2)C(C(=O)OC2CN(C(c3ccccc3)c3ccccc3)C2)=C(N)N1 (configuration not stated) [AZELNIDIPINE] > 30 µM

Quick one: Cc1cc(=O)n(-c2ccccc2)n1C [ANTIPYRINE] > 30 µM

Quick one: Cc1onc(-c2c(F)cccc2Cl)c1C(=O)N[C@@H]1C(=O)N2[C@@H]1SC(C)(C)[C@@H]2C(=O)O [FLOXACILLIN] > 30 µM

Quick one: CN(C)Cc1nnc2n1-c1ccc(Cl)cc1C(c1ccccc1)=NC2 [ADINAZOLAM] > 30 µM

Quick one: O=C(O)c1cccnc1Nc1cccc(C(F)(F)F)c1 [NIFLUMIC ACID] > 30 µM

Quick one: C[N+]12CCC(CC1)C(OC(=O)C(O)(c1ccccc1)c1ccccc1)C2 (configuration not stated) > 30 µM

Quick one: C[C@]12C=CC(=O)C=C1CC[C@@H]1[C@@H]2CC[C@]2(C)OC(=O)CC[C@@H]12 [TESTOLACTONE] > 30 µM

Quick one: C[N+](C)(C)CCOP(=O)(O)OP(=O)([O-])OC[C@H]1O[C@@H](n2ccc(N)nc2=O)[C@H](O)[C@@H]1O [CITICOLINE] > 30 µM

Quick one: CC(C)[C@H](N)C(=O)OCCOCn1cnc2c(=O)[nH]c(N)nc21 [VALACYCLOVIR] > 30 µM

Quick one: Cc1nnc(SCC2=C(C(=O)O)N3C(=O)[C@@H](NC(=O)Cn4cnnn4)[C@H]3SC2)s1 [CEFAZOLIN] > 300 µM
